# Test system: SK-MES-1
# test-summary: Cytotoxicity against human SKMES1 cells after 72 hrs by trypan blue exclusion assay
# Format: functional, cell-based
# condition-summary: SK-MES-1, 72 h
metric-name: EC50
In your response, put the unit directly after the numeric value.

query: Look up EC50: "CC[C@H]1OC(=O)[C@H](C)[C@@H](O[C@H]2C[C@@](C)(OC)[C@@H](O)[C@H](C)O2)[C@H](C)[C@@H](O[C@@H]2O[C@H](C)C[C@H](N(C)Cc3ccc(-c4cn(CCCCCCC(=O)NO)nn4)cc3)[C@H]2O)[C@](C)(OC)C[C@@H](C)C(=O)[C@H](C)[C@@H](O)[C@]1(C)O"
result: 1.33 µM

Continuing:
query: Look up EC50: "CC[C@H]1OC(=O)[C@H](C)[C@@H](O)[C@H](C)[C@@H](O[C@@H]2O[C@H](C)C[C@H](N(C)Cc3ccc(-c4cn(CCCCCCCC(=O)NO)nn4)cc3)[C@H]2O)[C@](C)(OC)C[C@@H](C)C(=O)[C@H](C)[C@@H](O)[C@]1(C)O"
result: 4.45 µM

query: // repeat for "CC[C@H]1OC(=O)[C@H](C)[C@@H](O)[C@H](C)[C@@H](O[C@@H]2O[C@H](C)C[C@H](N(C)Cc3ccc(-c4cn(CCCCCC(=O)NO)nn4)cc3)[C@H]2O)[C@](C)(O)C[C@@H](C)CN(C)[C@H](C)[C@@H](O)[C@]1(C)O" and report
result: 1.68 µM

query: // repeat for "CC[C@H]1OC(=O)[C@H](C)[C@@H](O[C@H]2C[C@@](C)(OC)[C@@H](O)[C@H](C)O2)[C@H](C)[C@@H](O[C@@H]2O[C@H](C)C[C@H](N(C)Cc3ccc(-c4cn(CCCCCCCC(=O)NO)nn4)cc3)[C@H]2O)[C@](C)(OC)C[C@@H](C)C(=O)[C@H](C)[C@@H](O)[C@]1(C)O" and report
result: 4.89 µM
